Experiment: activity coefficient (dimensionless); of the first substance listed, at infinite dilution; xn = mol fraction of the nth substance listed
Details: 338.15 K; Liquid; Chromatography; x1 = 0
Assignment: determine reported activity coefficient for the given compounds.
Give bare numbers.

// solved cases for activity coefficient follow
compound	reported.endpoint	val
CC1CCCCC1 [methylcyclohexane] + CCCCCCn1cc[n+](C)c1.N#C[B-](C#N)(C#N)C#N	activity coefficient	7.87
CCCC=O [butanal] + CCCCCCn1cc[n+](C)c1.N#C[B-](C#N)(C#N)C#N	activity coefficient	0.539
CCC(C)(C)C [2,2-dimethylbutane] + CCCCCCn1cc[n+](C)c1.N#C[B-](C#N)(C#N)C#N	activity coefficient	9.52

Consider the following items and state reported activity coefficient for each.
1. CCCCCCCC [octane] + CCCCCCn1cc[n+](C)c1.N#C[B-](C#N)(C#N)C#N
2. CC(C)OC(C)C [diisopropyl ether] + CCCCCCn1cc[n+](C)c1.N#C[B-](C#N)(C#N)C#N
3. CCCCCCCCCC [decane] + CCCCCCn1cc[n+](C)c1.N#C[B-](C#N)(C#N)C#N

# output
19.7
3.75
36.4

Go through the list and state activity coefficient for each entry.
1. CCOCC [diethyl ether] + CCCCCCn1cc[n+](C)c1.N#C[B-](C#N)(C#N)C#N
2. CC(=O)O [acetic acid] + CCCCCCn1cc[n+](C)c1.N#C[B-](C#N)(C#N)C#N

# output
1. 1.64
2. 0.298

Answer for every listed entry: what is its activity coefficient? The entries follow.
1. CC(C)CC(C)(C)C [2,2,4-trimethylpentane] + CCCCCCn1cc[n+](C)c1.N#C[B-](C#N)(C#N)C#N
2. C1=CCCCC1 [cyclohexene] + CCCCCCn1cc[n+](C)c1.N#C[B-](C#N)(C#N)C#N
3. Cc1ccc(C)cc1 [1,4-dimethylbenzene] + CCCCCCn1cc[n+](C)c1.N#C[B-](C#N)(C#N)C#N
4. CC(C)O [propan-2-ol] + CCCCCCn1cc[n+](C)c1.N#C[B-](C#N)(C#N)C#N
5. C=Cc1ccccc1 [styrene] + CCCCCCn1cc[n+](C)c1.N#C[B-](C#N)(C#N)C#N
6. C=CCCCC [hex-1-ene] + CCCCCCn1cc[n+](C)c1.N#C[B-](C#N)(C#N)C#N
7. CO [methanol] + CCCCCCn1cc[n+](C)c1.N#C[B-](C#N)(C#N)C#N

# output
1: 16.5; 2: 3.27; 3: 1.39; 4: 1.03; 5: 0.856; 6: 5.71; 7: 0.745

Below are some compounds; for each one, tell me its activity coefficient.
1. CCc1ccccc1 [ethylbenzene] + CCCCCCn1cc[n+](C)c1.N#C[B-](C#N)(C#N)C#N
2. CCCCC [pentane] + CCCCCCn1cc[n+](C)c1.N#C[B-](C#N)(C#N)C#N

# output
[1.43, 7.85]

* * *

Assay: activity coefficient (dimensionless); of the first substance listed, at infinite dilution; xn = mol fraction of the nth substance listed
Details: 318.15 K; Liquid; Chromatography; x1 = 0
For each of the compounds below, state its activity coefficient.
Answers are plain numbers.

compound	activity coefficient
O [water] + CCCCCCn1cc[n+](C)c1.N#C[B-](C#N)(C#N)C#N	2.05
Cc1ccc(C)cc1 [1,4-dimethylbenzene] + CCCCCCn1cc[n+](C)c1.N#C[B-](C#N)(C#N)C#N	1.33
Cc1ccccc1 [toluene] + CCCCCCn1cc[n+](C)c1.N#C[B-](C#N)(C#N)C#N	0.975

Below is a list of compounds. For each, state its recorded activity coefficient.
1. CCCO [propan-1-ol] + CCCCCCn1cc[n+](C)c1.N#C[B-](C#N)(C#N)C#N
2. CCc1ccccc1 [ethylbenzene] + CCCCCCn1cc[n+](C)c1.N#C[B-](C#N)(C#N)C#N

# output
1: 1.19; 2: 1.39

Report activity coefficient for each item below.
1. CC#N [acetonitrile] + CCCCCCn1cc[n+](C)c1.N#C[B-](C#N)(C#N)C#N
2. c1ccncc1 [pyridine] + CCCCCCn1cc[n+](C)c1.N#C[B-](C#N)(C#N)C#N
3. CCCCC [pentane] + CCCCCCn1cc[n+](C)c1.N#C[B-](C#N)(C#N)C#N

# output
1. 0.387
2. 0.38
3. 8.63

* * *

Can you tell me activity coefficient for the items I'm about to list?
Experiment: activity coefficient (dimensionless); of the first substance listed, at infinite dilution; xn = mol fraction of the nth substance listed
Details: 348.15 K; Liquid; Chromatography; x1 = 0
Numbers only.

Here are 6 compounds together with their reported answers.
compound	val
CCC(C)O (stereo unspecified) [butan-2-ol] + CCCCCCn1cc[n+](C)c1.N#C[B-](C#N)(C#N)C#N	1.03
c1ccncc1 [pyridine] + CCCCCCn1cc[n+](C)c1.N#C[B-](C#N)(C#N)C#N	0.408
Cc1ccccc1C [1,2-dimethylbenzene] + CCCCCCn1cc[n+](C)c1.N#C[B-](C#N)(C#N)C#N	1.26
Cc1ccccc1 [toluene] + CCCCCCn1cc[n+](C)c1.N#C[B-](C#N)(C#N)C#N	1.04
C1COCCO1 [1,4-dioxane] + CCCCCCn1cc[n+](C)c1.N#C[B-](C#N)(C#N)C#N	0.419
CCC(=O)CC [pentan-3-one] + CCCCCCn1cc[n+](C)c1.N#C[B-](C#N)(C#N)C#N	0.536

Would you mind listing activity coefficient for each of the following compounds?
1. C=CCCCCCCCC [1-decene] + CCCCCCn1cc[n+](C)c1.N#C[B-](C#N)(C#N)C#N
2. c1ccccc1 [benzene] + CCCCCCn1cc[n+](C)c1.N#C[B-](C#N)(C#N)C#N
3. CCCO [propan-1-ol] + CCCCCCn1cc[n+](C)c1.N#C[B-](C#N)(C#N)C#N

# output
18.5
0.773
0.965

Could I get activity coefficient for every one of these entries?
1. CCCCCCCC [octane] + CCCCCCn1cc[n+](C)c1.N#C[B-](C#N)(C#N)C#N
2. CC1CCCCC1 [methylcyclohexane] + CCCCCCn1cc[n+](C)c1.N#C[B-](C#N)(C#N)C#N

# output
1. 18.6
2. 7.58

* * *

Test: activity coefficient (dimensionless); of the first substance listed, at infinite dilution; xn = mol fraction of the nth substance listed
Details: 338.15 K; Liquid; Chromatography; x1 = 0
So I've got a bunch of compounds here, and I need their activity coefficient values.
Numbers only.

Worked cases, activity coefficient given:
compound	activity coefficient
O [water] + CCCCCCn1cc[n+](C)c1.N#C[B-](C#N)(C#N)C#N	1.7
CCC[N+](=O)[O-] [1-nitropropane] + CCCCCCn1cc[n+](C)c1.N#C[B-](C#N)(C#N)C#N	0.503
Cc1cccc(C)c1 [1,3-dimethylbenzene] + CCCCCCn1cc[n+](C)c1.N#C[B-](C#N)(C#N)C#N	1.42

Report activity coefficient for every entry below.
1. CCC(C)O (stereo not drawn) [butan-2-ol] + CCCCCCn1cc[n+](C)c1.N#C[B-](C#N)(C#N)C#N
2. C#CCCCCC [1-heptyne] + CCCCCCn1cc[n+](C)c1.N#C[B-](C#N)(C#N)C#N
3. CCCO [propan-1-ol] + CCCCCCn1cc[n+](C)c1.N#C[B-](C#N)(C#N)C#N

# output
[1.1, 2.94, 1.02]

Return reported activity coefficient values for all items listed beneath this line.
1. CC(C)=O [acetone] + CCCCCCn1cc[n+](C)c1.N#C[B-](C#N)(C#N)C#N
2. C#CCCCCCC [1-octyne] + CCCCCCn1cc[n+](C)c1.N#C[B-](C#N)(C#N)C#N

# output
1. 0.354
2. 3.96

* * *

Assay: activity coefficient (dimensionless); of the first substance listed, at infinite dilution; xn = mol fraction of the nth substance listed
Settings: 358.15 K; Liquid; Chromatography; x1 = 0
For each record, write down the corresponding activity coefficient.
Numbers only.

Recorded results for 3 compounds are shown here.
compound	activity coefficient
C=C(C)c1ccccc1 [(1-methylethenyl)benzene] + CCCCCCn1cc[n+](C)c1.N#C[B-](C#N)(C#N)C#N	1.34
O [water] + CCCCCCn1cc[n+](C)c1.N#C[B-](C#N)(C#N)C#N	1.42
COC(C)(C)C [2-methoxy-2-methylpropane] + CCCCCCn1cc[n+](C)c1.N#C[B-](C#N)(C#N)C#N	1.81

# input // lookup activity coefficient for CCCCC [pentane] + CCCCCCn1cc[n+](C)c1.N#C[B-](C#N)(C#N)C#N
# output 7.33

* * *

Would you kindly list activity coefficient for each of these compounds?
Test: activity coefficient (dimensionless); of the first substance listed, at infinite dilution; xn = mol fraction of the nth substance listed
Conditions: 328.15 K; Liquid; Chromatography; x1 = 0
Answers are plain numbers.

compound	activity coefficient
CCc1ccccc1 [ethylbenzene] + CCCCCCn1cc[n+](C)c1.N#C[B-](C#N)(C#N)C#N	1.41
CC(C)OC(C)C [diisopropyl ether] + CCCCCCn1cc[n+](C)c1.N#C[B-](C#N)(C#N)C#N	3.71

Report activity coefficient for every entry below.
1. CCCC(=O)OC [methyl butanoate] + CCCCCCn1cc[n+](C)c1.N#C[B-](C#N)(C#N)C#N
2. COC(C)=O [methyl ethanoate] + CCCCCCn1cc[n+](C)c1.N#C[B-](C#N)(C#N)C#N
3. CO [methanol] + CCCCCCn1cc[n+](C)c1.N#C[B-](C#N)(C#N)C#N

# output
1. 0.684
2. 0.521
3. 0.786

Batch of 3 compounds: report activity coefficient for each.
1. c1ccsc1 [thiophene] + CCCCCCn1cc[n+](C)c1.N#C[B-](C#N)(C#N)C#N
2. CCCCCCC [heptane] + CCCCCCn1cc[n+](C)c1.N#C[B-](C#N)(C#N)C#N
3. C1CCCCCCC1 [cyclooctane] + CCCCCCn1cc[n+](C)c1.N#C[B-](C#N)(C#N)C#N

# output
[0.647, 15.4, 9.29]

Batch: activity coefficient for all items listed.
1. C1CCCCC1 [cyclohexane] + CCCCCCn1cc[n+](C)c1.N#C[B-](C#N)(C#N)C#N
2. CCC(C)CC [3-methylpentane] + CCCCCCn1cc[n+](C)c1.N#C[B-](C#N)(C#N)C#N
3. CCC(=O)OC [methyl propanoate] + CCCCCCn1cc[n+](C)c1.N#C[B-](C#N)(C#N)C#N
4. CCCC=O [butanal] + CCCCCCn1cc[n+](C)c1.N#C[B-](C#N)(C#N)C#N
5. Cc1cccc(C)c1 [1,3-dimethylbenzene] + CCCCCCn1cc[n+](C)c1.N#C[B-](C#N)(C#N)C#N
6. Cc1ccccc1C [1,2-dimethylbenzene] + CCCCCCn1cc[n+](C)c1.N#C[B-](C#N)(C#N)C#N
7. CCO [ethanol] + CCCCCCn1cc[n+](C)c1.N#C[B-](C#N)(C#N)C#N

# output
6.15
9.96
0.628
0.523
1.39
1.22
0.978
